- Tested on: NIK
- Construct: gene MAP3K14
- run-parameters: concentration: 1 μM, replicates: in singlicate; n = 1
For each entry below, report its %Inh value.

Example compounds with recorded %Inh:
FC(F)(F)c1ccc(-c2cc(-c3c[nH]nc3-c3ccccn3)ccn2)cc1	0%
Cn1cc(-c2ccc3c(c2)CCN3C(=O)Cc2cccc(C(F)(F)F)c2)c2c(N)ncnc21	0%
CC(C)(C)c1ccc(-n2cnc3c(N)ncnc32)cc1	0%

Dear reader, for each entry below, please note its %Inh.
1. CC(C)N1CCC(n2cnc(-c3ccc(F)cc3)c2-c2ccnc(N)n2)CC1
2. CCCc1ccc(S(=O)(=O)NC2CCN(c3ccnc(Nc4ccc(OC)cc4)n3)C2)cc1 (stereo not shown)
3. OCCOCCn1ccc2ncnc(Nc3ccc(Oc4cccc(Cl)c4)c(Cl)c3)c21
4. Cc1cc(N2CCC(NS(=O)(=O)c3ccc(F)cc3)CC2)nc(Nc2cccc(C#N)c2)n1.O=C(O)C(F)(F)F
5. CCC(CC)(CC)n1cnc2c(N)ncnc21
6. Nc1nc(-c2cccnc2)c(-c2ccnc3ccccc23)s1
7. Cl.O=S(=O)(c1cccc(F)c1)c1ccc(Nc2ncnc3cc(Br)sc23)cc1Cl

stdout:
1. 0%
2. 43%
3. 0%
4. 0%
5. 0%
6. 29%
7. 4%

Okay, here is my list. What is %Inh for each of these?
1. CSc1nn2c(=O)cc(N3CCOCC3)nc2n1Cc1cccc(Cl)c1Cl
2. O=C(Nc1ccccc1)Nc1ccc(Oc2ccc3nccn3n2)cc1
3. Fc1ccc(-c2ncn(CCCNCc3ccccc3)c2-c2ccncc2)cc1
4. Nc1nccc2scc(-c3ccc4c(c3)CCN4C(=O)Cc3cc(F)ccc3F)c12
5. Cc1ccc(C)c(NC(=O)NCCNc2ccnc(Nc3ccc(F)cc3)n2)c1
6. Cc1ccc(NC(=O)c2cccc(C#N)c2)cc1-c1ccc(C(=O)Nc2ccncc2)cc1
7. Clc1ccc(-c2cc(-c3c[nH]nc3-c3ccccn3)ccn2)cc1

stdout:
["0%", "0%", "12%", "0%", "10%", "0%", "30%"]

Provide each entry's %Inh from the list below.
1. C[C@@H]1CCN(C(=O)CO)C[C@@H]1N(C)c1ncnc2[nH]ccc12
2. O=C(NCCCN1CCCC1=O)c1cnc(NCc2cc(Cl)ccc2Cl)nc1NC1CCNCC1

stdout:
1: 0%; 2: 0%

###

- System: CHEK1
- run-parameters: concentration: 1 μM, replicates: in singlicate; n = 1
Give measured %Inh for each item. Keep answers brief.
One number for each entry, in %.

See these solved cases before continuing.
FC(F)(F)c1cc(Nc2nccc(-c3c(-c4ccc(Cl)cc4)nn4ncccc34)n2)ccc1Cl	0
FC(F)(F)c1ccc(-c2cc(-c3c[nH]nc3-c3ccccn3)ccn2)cc1	0
COc1ccc(-c2oc3ncnc(N)c3c2-c2ccc(OC)cc2)cc1	0
Fc1ccc(Nc2nccc(-c3c(-c4ccc(Cl)cc4)nn4ncccc34)n2)cc1F	12

Let us move to another entry and its %Inh.
stdin: GET /values?readout=%Inh&item= `Clc1cccc(-c2nc(Nc3ccncc3)c3ccccc3n2)c1`
stdout: 0

###

- Tested on: CSK;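 further: kd values determined as follow-up on hits from a single-replicate KINOMEscan panel screen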
outcome-measure: Kd

c1ccc(-c2ccc3c(-c4ccnc(Nc5ccc6c(c5)OCCO6)n4)cnn3n2)cc1	> 10 µM

Please look at the following molecule next.
stdin: Which Kd value belongs to `Cc1ccc(C)c(NC(=O)NCCNc2ccnc(Nc3ccc(F)cc3)n2)c1` ?
stdout: > 10 µM
